Test: Oral bioavailability in rat at 3 mg/kg
Assay type: ADME, organism-based
Conditions: in vivo

| STRUCTURE SMILES STRING | bioavailability (%) |
| --- | --- |
| CCN1CCN(c2cc3[nH]c(C(=O)[C@]4(C)CC[C@@](C)(O)CC4)nc3cc2Cl)CC1 | 15 |

----------
Test: Metabolic stability in human liver microsomes assessed as parent compound remaining at 1 uM after 30 mins
Format: ADME, Microsome
Conditions: read-out: Stability

| STRUCTURE SMILES STRING | remaining at 0.5 h, 1 µM |
| --- | --- |
| CCN1CCN(c2cc3[nH]c(C(=O)[C@]4(C)CC[C@@H](NC(=O)OC)CC4)nc3cc2C)CC1 | 71% |
| CCN1CCN(c2cc3[nH]c(C(=O)[C@]4(C)CC[C@@](C)(O)CC4)nc3cc2Cl)CC1 | 82% |
| CCN1CCN(c2cc3[nH]c(C(=O)[C@]4(CC)CC[C@@](C)(O)CC4)nc3cc2Cl)CC1 | 57% |
| CCN1CCN(c2cc3[nH]c(C(=O)[C@]4(C)CC[C@@H](NC(=O)OC)CC4)nc3cc2Cl)CC1 | 74% |
